tested on: 233499-124-R-J3-PDC complex spheroid viability; assay: Anticancer human tumor 233499-124-R-J3-PDC patient-derived colon adenocarcinoma cell line growth inhibition [CLK]; details: second compound 1 µM; first compound 1 µM; active compounds read low
The label 1.0 is reserved for viability, T/C strictly under 2%; 0.0 covers values equal to or above it.

Answered examples (4):
- molecule: "CC1(C)CCC(CN2CCN(c3ccc(C(=O)NS(=O)(=O)c4ccc(NCC5CCOCC5)c([N+](=O)[O-])c4)c(Oc4cnc5[nH]ccc5c4)c3)CC2)=C(c2ccc(Cl)cc2)C1 + CN1CCN(c2cc(C(=O)Nc3cc4cc(-c5cnn(C)c5)ccc4cn3)ccn2)CC1"
  class-assignment: 1.0
- molecule: "CCN1CCN(Cc2ccc(Nc3ncc(F)c(-c4cc(F)c5nc(C)n(C(C)C)c5c4)n3)nc2)CC1 + CN1CCN(c2cc(C(=O)Nc3cc4cc(-c5cnn(C)c5)ccc4cn3)ccn2)CC1"
  class-assignment: 0.0
- molecule: "C=C(F)C(=O)N1CCN(c2nc(OCC3CCCN3C)nc3c2CCN(c2cccc4cccc(Cl)c24)C3)CC1CC#N (stereo not given) + CN1CCN(c2cc(C(=O)Nc3cc4cc(-c5cnn(C)c5)ccc4cn3)ccn2)CC1"
  class-assignment: 1.0
- molecule: "COC1C=CCC(C)C(C)S(=O)(=O)NC(=O)c2ccc3c(c2)N(CC2CCC21)CC1(CCCc2cc(Cl)ccc21)CO3 (stereo not given) + CNC(=O)c1ccc(Nc2nc(OC3CCCC3)c3c(-c4ccc5nc(C)oc5c4)c[nH]c3n2)c(OC)c1"
  class-assignment: 0.0

Moving on to the next molecule.
Does this molecule meet the criterion viability, T/C < 2%? C=C(F)C(=O)N1CCN(c2nc(OCC3CCCN3C)nc3c2CCN(c2cccc4cccc(Cl)c24)C3)CC1CC#N (stereo not given) + CNC(=O)c1ccc(Nc2nc(OC3CCCC3)c3c(-c4ccc5nc(C)oc5c4)c[nH]c3n2)c(OC)c1 0.0

---

test system: 233499-124-R-J3-PDC complex spheroid viability; assay: Anticancer human tumor 233499-124-R-J3-PDC cell line growth inhibition [CLK]; conditions: second compound 1 µM; first compound 10 µM; active = viability on the fitted dose curve at most 10% of control; inactive = the rest;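 further: spheroids exposed to the drug combinations for seven days; percent viability relative to DMSO vehicle control wells taken as 100%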
API: response.call in yes (active), no (inactive)

Answered examples (3):
- molecule: "C#Cc1c(F)ccc2cc(O)cc(-c3ncc4c(N5CC6CCC(C5)N6)nc(OCC56CCCN5CC(F)C6)nc4c3F)c12 (centres undefined) + CN1CCN(c2cc(C(=O)Nc3cc4cc(-c5cnn(C)c5)ccc4cn3)ccn2)CC1"
  class-assignment: "yes"
- molecule: "CC(Nc1ccc2c(c1)OCCn1cc(N3C(=O)OCC3C(F)F)nc1-2)C(N)=O (centres undefined) + CNC(=O)c1ccc(Nc2nc(OC3CCCC3)c3c(-c4ccc5nc(C)oc5c4)c[nH]c3n2)c(OC)c1"
  class-assignment: "no"
- molecule: "CC(CO)NC(=O)c1cc(-c2ccc(Cl)cc2)nn(-c2cnn(C)c2)c1=O (centres undefined) + CNC(=O)c1ccc(Nc2nc(OC3CCCC3)c3c(-c4ccc5nc(C)oc5c4)c[nH]c3n2)c(OC)c1"
  class-assignment: "no"

In this assay, the call recorded for CC1COCCN1c1cc(C2(S(C)(=N)=O)CC2)nc(-c2ccnc3[nH]ccc23)n1 (centres undefined) + CNC(=O)c1ccc(Nc2nc(OC3CCCC3)c3c(-c4ccc5nc(C)oc5c4)c[nH]c3n2)c(OC)c1 was what? no

In this assay, the call recorded for C=CC(=O)N1CCN(c2nc(=O)n(-c3c(C)ccnc3C(C)C)c3nc(-c4c(O)cccc4F)c(F)cc23)C(C)C1 (centres undefined) + CNC(=O)c1ccc(Nc2nc(OC3CCCC3)c3c(-c4ccc5nc(C)oc5c4)c[nH]c3n2)c(OC)c1 was what? no

In this assay, the call recorded for CC1(C)CCC(CN2CCN(c3ccc(C(=O)NS(=O)(=O)c4ccc(NCC5CCOCC5)c([N+](=O)[O-])c4)c(Oc4cnc5[nH]ccc5c4)c3)CC2)=C(c2ccc(Cl)cc2)C1 + CN1CCN(c2cc(C(=O)Nc3cc4cc(-c5cnn(C)c5)ccc4cn3)ccn2)CC1 was what? yes

In this assay, the call recorded for Nc1ccn(C2OC(CO)C(O)C2(F)F)c(=O)n1 (centres undefined) + CN1CCN(c2cc(C(=O)Nc3cc4cc(-c5cnn(C)c5)ccc4cn3)ccn2)CC1 was what? yes

In this assay, the call recorded for COC1C=CCC(C)C(C)S(=O)(=O)NC(=O)c2ccc3c(c2)N(CC2CCC21)CC1(CCCc2cc(Cl)ccc21)CO3 (centres undefined) + CNC(=O)c1ccc(Nc2nc(OC3CCCC3)c3c(-c4ccc5nc(C)oc5c4)c[nH]c3n2)c(OC)c1 was what? yes

In this assay, the call recorded for CC(=O)O[C@H]1C(=O)[C@@]2(C)[C@H]([C@H](OC(=O)c3ccccc3)[C@]3(O)C[C@H](OC(=O)[C@H](O)[C@@H](NC(=O)c4ccccc4)c4ccccc4)C(C)=C1C3(C)C)[C@]1(OC(C)=O)CO[C@@H]1C[C@@H]2O + CN1CCN(c2cc(C(=O)Nc3cc4cc(-c5cnn(C)c5)ccc4cn3)ccn2)CC1 was what? yes

---

tested on: 233499-124-R-J3-PDC complex spheroid viability; assay: Anticancer human tumor 233499-124-R-J3-PDC cell line growth inhibition [CLK]; details: second compound 0.1 µM; first compound 10 µM; active compounds read low;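 further: spheroids exposed to the drug combinations for seven days; percent viability relative to DMSO vehicle control wells taken as 100%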
Reported viability, T/C values for a set of compounds
Give the number; % is assumed, so skip it.

- compound: "C#Cc1c(F)ccc2cc(O)cc(-c3ncc4c(N5CC6CCC(C5)N6)nc(OCC56CCCN5CC(F)C6)nc4c3F)c12 (configuration not stated) + CNC(=O)c1ccc(Nc2nc(OC3CCCC3)c3c(-c4ccc5nc(C)oc5c4)c[nH]c3n2)c(OC)c1"
  viability, T/C / %: 57.7

# context switch: different compound, same viability, T/C
Sample CC1(C)CCC(CN2CCN(c3ccc(C(=O)NS(=O)(=O)c4ccc(NCC5CCOCC5)c([N+](=O)[O-])c4)c(Oc4cnc5[nH]ccc5c4)c3)CC2)=C(c2ccc(Cl)cc2)C1 + CN1CCN(c2cc(C(=O)Nc3cc4cc(-c5cnn(C)c5)ccc4cn3)ccn2)CC1 ; viability, T/C observed: 14.5

---

tested on: 233499-124-R-J3-PDC complex spheroid viability; test: Anticancer human tumor 233499-124-R-J3-PDC cell line growth inhibition [CLK]; settings: second compound 0.1 µM; first compound 3.16 µM; active compounds read low;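 further: spheroids exposed to the drug combinations for seven days; percent viability relative to DMSO vehicle control wells taken as 100%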
reported-metric: viability, T/C (%)
Give the number; % is assumed, so skip it.

Some solved entries appear below for comparison.
- compound: "O=C(c1cc(Cc2n[nH]c(=O)c3ccccc23)ccc1F)N1CCN(C(=O)C2CC2)CC1 + CNC(=O)c1ccc(Nc2nc(OC3CCCC3)c3c(-c4ccc5nc(C)oc5c4)c[nH]c3n2)c(OC)c1"
  unit-annotation: "%"
  readout-value: 57.8
- compound: "CC(=O)O[C@H]1C(=O)[C@@]2(C)[C@H]([C@H](OC(=O)c3ccccc3)[C@]3(O)C[C@H](OC(=O)[C@H](O)[C@@H](NC(=O)c4ccccc4)c4ccccc4)C(C)=C1C3(C)C)[C@]1(OC(C)=O)CO[C@@H]1C[C@@H]2O + CNC(=O)c1ccc(Nc2nc(OC3CCCC3)c3c(-c4ccc5nc(C)oc5c4)c[nH]c3n2)c(OC)c1"
  unit-annotation: "%"
  readout-value: 72.9
- compound: "COc1ccc([C@@H](O)c2cc(-c3ncnc4cc(N5CCOCC5)ccc34)c(F)cc2Cl)nn1 + CN1CCN(c2cc(C(=O)Nc3cc4cc(-c5cnn(C)c5)ccc4cn3)ccn2)CC1"
  unit-annotation: "%"
  readout-value: 78.9
- compound: "CC1COCCN1c1cc(C2(S(C)(=N)=O)CC2)nc(-c2ccnc3[nH]ccc23)n1 (stereo not given) + CN1CCN(c2cc(C(=O)Nc3cc4cc(-c5cnn(C)c5)ccc4cn3)ccn2)CC1"
  unit-annotation: "%"
  readout-value: 75.7

# context switch: different compound, same viability, T/C
Sample COC1C=CCC(C)C(C)S(=O)(=O)NC(=O)c2ccc3c(c2)N(CC2CCC21)CC1(CCCc2cc(Cl)ccc21)CO3 (stereo not given) + CNC(=O)c1ccc(Nc2nc(OC3CCCC3)c3c(-c4ccc5nc(C)oc5c4)c[nH]c3n2)c(OC)c1 ; viability, T/C observed: 33.8

---

Reported viability, T/C values for a set of molecules
tested on: 233499-124-R-J3-PDC complex spheroid viability; experiment: Anticancer human tumor 233499-124-R-J3-PDC cell line growth inhibition [CLK]; settings: second compound 0.1 µM; first compound 3.16 µM; active compounds read low;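 further: spheroids exposed to the drug combinations for seven days; percent viability relative to DMSO vehicle control wells taken as 100%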

Some solved entries appear below for comparison.
- molecule: "COc1ccc([C@@H](O)c2cc(-c3ncnc4cc(N5CCOCC5)ccc34)c(F)cc2Cl)nn1 + CNC(=O)c1ccc(Nc2nc(OC3CCCC3)c3c(-c4ccc5nc(C)oc5c4)c[nH]c3n2)c(OC)c1"
  readout-value: "65.5%"
- molecule: "Nc1ccn(C2OC(CO)C(O)C2(F)F)c(=O)n1 (stereo not drawn) + CNC(=O)c1ccc(Nc2nc(OC3CCCC3)c3c(-c4ccc5nc(C)oc5c4)c[nH]c3n2)c(OC)c1"
  readout-value: "18.2%"

# context switch: different molecule, same viability, T/C
Sample CC(=O)O[C@H]1C(=O)[C@@]2(C)[C@H]([C@H](OC(=O)c3ccccc3)[C@]3(O)C[C@H](OC(=O)[C@H](O)[C@@H](NC(=O)c4ccccc4)c4ccccc4)C(C)=C1C3(C)C)[C@]1(OC(C)=O)CO[C@@H]1C[C@@H]2O + CN1CCN(c2cc(C(=O)Nc3cc4cc(-c5cnn(C)c5)ccc4cn3)ccn2)CC1 ; viability, T/C observed: 12%
